# ASSAY_TEXT: pKa determination by potentiometric titration / Dip Probe Absorption Spectroscopy
# Type: physicochemical
# APPLIED_CONDITIONS: Dip Probe Absorption Spectroscopy, ion strength 0.16, extrapolated to zero MeOH; read-out: lower pKa
# Description: pKa was determined by potentiometric titration of the base at ion strength 0.16 using MeOH as co-solvent. […] The apparent pKa-value at each MeOH:water ratio is calculated from the difference curves, and the pKa value is determined by extrapolation to zero MeOH content. The lower pKa was determined by Dip Probe Absorption Spectroscopy detection during titration of the base at ion strength 0.16 using MeOH as co-solvent. […]
MEASUREMENT_NAME: pKa
Lab note: jot down the number only; don't add units.

# lookup: pKa of [2H]c1c([2H])c([2H])c([C@@H]2C[C@@H](N3CCN(C([2H])([2H])[2H])C(C)(C)C3)c3cc(Cl)ccc32)c([2H])c1[2H] (single isomer, unassigned) [Compound (IV)]
2.5

====

# ASSAY_TEXT: Log P / log D profile by titration with n-octanol
# Format: physicochemical
# APPLIED_CONDITIONS: n-octanol:water, 27° C., ion strength approximately 0.16
MEASUREMENT_NAME: logP
Answer using only a numeral; do not append any unit.

Could you share which logP value was measured for [2H]c1c([2H])c([2H])c([C@@H]2C[C@@H](N3CCN(C([2H])([2H])[2H])C(C)(C)C3)c3cc(Cl)ccc32)c([2H])c1[2H] (single isomer, unassigned) [Compound (IV)] ?
5.4
